system: PANC-1; assay: Cytotoxicity in human PANC1 cells assessed as cell viability after 48 hrs by MTT assay; type: functional, cell-based; details: PANC-1, 48 h
Hi! Could you tag entries with IC50 below 70 µM as condition met, and those at or above as condition not met? Much appreciated.

Example cases with answers are listed next.
>>> class_label("C=C(C)[C@@H]1CCC2=C(CC[C@]3(C)[C@@H]([C@H](CO)CCC=C(C)C)[C@H](O)C[C@@]23C)[C@@]1(C)CCCO")
"condition met"
>>> class_label("C=C(CC[C@@H](CO)[C@H]1[C@H](O)C[C@@]2(C)C3=CC[C@H]4C(C)(C)[C@H](O)CC[C@]4(C)C3=CC[C@]12C)C(C)(C)O")
"condition not met"
>>> class_label("C=C(CC[C@@H](CO)[C@H]1CC[C@@]2(C)C3=CC[C@@H](C(=C)C)[C@](C)(CCCO)C3=CC[C@]12C)C(C)C")
"condition not met"

Please find the next compound below.
Consider C=C(CC[C@@H](C(=O)O)[C@H]1[C@H](O)C[C@@]2(C)C3=CC[C@H]4C(C)(C)[C@H](O)CC[C@]4(C)C3=CC[C@]12C)C(C)(C)O . Does its IC50 lie strictly below 70 µM? condition met

====

test system: WI-38; assay: Cytotoxicity against human WI38 cells assessed as cell viability after 48 hrs by MTT assay; assay type: cell-based; conditions: WI-38, 48 h
measured.quantity: IC50 (µM)
Answers are plain numbers, in µM.

Which IC50 value is on record for C=C(CC[C@@H](CO)[C@H]1[C@H](O)C[C@@]2(C)C3=CC[C@@H](C(=C)C)[C@](C)(CCCO)C3=CC[C@]12C)C(C)C ? 55.7

====

assay: Cytotoxicity in human CRL1579 cells assessed as cell viability after 48 hrs by MTT assay; assay type: functional, cell-based
measured.quantity: pIC50
Give bare numbers, as −log10 of the molar value.

>>> measured_number("C=C(CC[C@@H](CO)[C@H]1[C@H](O)C[C@@]2(C)C3=CC[C@@H](C(=C)C)[C@](C)(CCCO)C3=CC[C@]12C)C(C)C")
5.26
>>> measured_number("C=C(CC[C@@H](C(=O)OC)[C@H]1[C@H](O)C[C@@]2(C)C3=CC[C@H]4C(C)(C)[C@H](O)CC[C@]4(C)C3=CC[C@]12C)C(C)(C)O")
4.12

Batch request: pIC50 for each of the following compounds.
1. C=C(CC[C@@H](CO)[C@H]1[C@H](O)C[C@@]2(C)C3=CC[C@H]4C(C)(C)[C@H](O)CC[C@]4(C)C3=CC[C@]12C)C(C)(C)O
2. C=C(C)[C@@H]1CCC2=C(CC[C@]3(C)[C@@H]([C@@H](CCC=C(C)C)C(=O)OC)[C@H](O)C[C@@]23C)[C@@]1(C)CCC(=O)OC [DIMETHYL PORICOATE G]
3. C=C(CC[C@@H](CO)[C@H]1CC[C@@]2(C)C3=CC[C@@H](C(=C)C)[C@](C)(CCCO)C3=CC[C@]12C)C(C)C
4. C=C(CC[C@@H](C(=O)OC)[C@H]1[C@H](O)C[C@@]2(C)C3=C(CC[C@]12C)[C@@](C)(CCC(=O)OC)[C@H](C(=C)C)CC3)C(C)C [DIMETHYL PORICOATE H]

1. 4.85
2. 4.37
3. 4.12
4. 4.01

For C=C(C)[C@@H]1CCC2=C(CC[C@]3(C)[C@@H]([C@H](CO)CCC=C(C)C)[C@H](O)C[C@@]23C)[C@@]1(C)CCCO , what is its reported pIC50? 4.94
